System: OVCAR-5 ovarian
Assay: NCI-60 one-dose screen, 48 h
Details: 10 µM unless noted
This is part of a sample that, as a whole, favours compounds with a hit. Of some 83,000 tested, about 20% had one in any assay. Activity calls are given as the source filed them. The calls were made as follows: active = growth percent below 10; inactive = the rest.
Valid outcomes are listed here; reply with one: True (active), False (inactive)

// query How was `O=C(/C=C/c1ccc(Cl)cc1)c1ccc(Nc2nc(NCCO)nc(Nc3ccc(Cl)cc3)n2)cc1` classified in this test?
// result False

* * *

Test system: NCI-H460 lung
Assay: NCI-60 one-dose screen, 48 h (100 = growth as untreated, 0 = no growth, -100 = all killed)
Details: 10 µM unless noted
The panel holds about 83,000 compounds, 20% with a hit somewhere; the sample as a whole holds those more often.
# maps each entry to its growth
Kindly provide the numeric value in % only, without the unit symbol.

Example entries begin here.
COMPOUND	QUANTITY KIND	OBSERVED RESULT
COc1ccc(/C=C2\N=C(c3ccccc3)N(c3ccc(-c4nc5ccc(C)cc5s4)cc3)C2=O)cc1	growth	89.6
COc1ccc(N(C)c2nc(N)nc3sc4c(c23)CCCC4)cc1	growth	3.58
CCCCN1CCN(c2ccc3nc(-c4ccc5nc(-c6ccc(C(F)(F)F)cc6)[nH]c5c4)[nH]c3c2)CC1	growth	-79.9
COc1ccccc1N1CCN(C(CNS(=O)(=O)c2ccc(Cl)cc2)c2cccnc2)CC1 (centres undefined)	growth	77.1
Cn1nc(C(F)(F)F)c(-c2ccc(Cl)c(C(F)(F)F)c2)c1-c1ccc(OCc2ccc(Cl)cc2)cc1O	growth	6.25

// query // fetch NCI-H460 lung growth for `Cc1cc2c(c(C)c1Cl)C(=O)/C(=C/c1cccc([N+](=O)[O-])c1)O2`
// result 101

* * *

Test system: SF-539 CNS
Test: NCI-60 one-dose screen, 48 h (100 = growth as untreated, 0 = no growth, -100 = all killed)
Conditions: 10 µM unless noted
Compounds without any hit were thinned out: in the full panel of roughly 83,000, 20% have a hit.
# maps each entry to its growth
Kindly provide the numeric value in % only, without the unit symbol.

Example entries begin here.
COMPOUND	UNIT TEXT	OBSERVED RESULT
O=C(Nc1ccc(Br)cc1F)c1cc(I)ccc1O	%	9.06
COc1ccc(Nc2nc(N/N=C/c3ccc(O)cc3)nc(Nc3ccc([N+](=O)[O-])cc3)n2)cc1	%	110
COc1ccc(CCN2C(=O)/C(=C/c3ccc(C4Oc5ccccc5C5CC(c6cccc(OC)c6)=NN54)cc3)SC2=S)cc1 (configuration not stated)	%	95.4

Note: attention shifts to another entry.
// query Given the entry `Cc1ccc(OCCCCCCNCCO)c(C)c1` , report its measured growth.
// result -14.7

* * *

Tested on: HCC-2998 colon
Assay: NCI-60 one-dose screen, 48 h (100 = growth as untreated, 0 = no growth, -100 = all killed)
Conditions: 10 µM unless noted
About 83,000 compounds went through this panel and 20% of them were active in at least one assay; those are over-represented in the sample as a whole. Calls of active or inactive are those of the source. How the source made its calls: active means growth percent below 10; inactive means the rest.
# maps each entry to its growth

MOLECULE	growth
O=C1c2cc(I)ccc2Oc2cc([N+](=O)[O-])ccc2N1c1ccc(Cl)cc1F	102% (inactive)

// query Given the entry O=C(NC1CCCCC1)C(c1cccs1)N(CCc1ccccc1)C(=O)c1ccco1 (stereo not given) , report its measured growth.
// result 105% (inactive)

// query Given the entry `c1ccc(-c2ccc(-c3nc4ccccc4[nH]3)cc2)cc1` , report its measured growth.
// result 88.3% (inactive)

* * *

System: SK-MEL-28 melanoma
Assay: NCI-60 one-dose screen, 48 h (100 = growth as untreated, 0 = no growth, -100 = all killed)
Details: 10 µM
This is part of a sample that, as a whole, favours compounds with a hit. Of some 83,000 tested, about 20% had one in any assay. The source made the active and inactive calls. How the source made its calls: active means growth percent below 10; inactive means the rest.
# maps each entry to its growth

// query Given the entry `CC(=O)c1ccc(NC(=O)Nc2ccc(S(=O)(=O)Nc3ccc(Cl)nn3)cc2)cc1` , report its measured growth.
// result 107% (inactive)

// query Given the entry `Nc1nc(Nc2cccc(F)c2)nc2ccccc12` , report its measured growth.
// result 44.4% (inactive)

* * *

Test system: K-562 leukemia
Assay: NCI-60 one-dose screen, 48 h
Settings: 10 µM unless noted
This is part of a sample that, as a whole, favours compounds with a hit. Of some 83,000 tested, about 20% had one in any assay. Active and inactive are the calls of the source. Rule for the calls: active = growth percent below 10; inactive = the rest.
Valid outcomes are listed here; reply with one: true = active, false = inactive

Solved entries:
COMPOUND	CLASSIFICATION
CCN(CC)CCNC(=O)C(Cl)=C1C(Cl)=C(Cl)C(Cl)=C1Cl	false
O=c1cc(-c2ccccc2)oc2cc(OCc3cn(Cc4ccc(F)cc4)nn3)cc(OCc3cn(Cc4ccc(F)cc4)nn3)c12	false
COc1cccc2cc(N(C)c3nc(C)nc4ccsc34)ccc12	true
NC(CCl)=NCCC[C@H](N)C(=O)O	false
CCOC(=O)c1cc2c(n1Cc1ccccc1OC)-c1oncc1CCC2	false

// query How was `NCCOc1ccccc1/C=C1\c2ccccc2-c2ccc([N+](=O)[O-])cc21` classified in this test?
// result true

// query How was CCN1C(=O)N(CC)C2Nn3c(s/c(=C4\C(=O)N(C(C)C)c5ccccc54)c3=O)=NC21 (stereo unspecified) classified in this test?
// result false

// query How was `O=C(CSc1ccc2nnc(-c3cccc(F)c3)n2n1)Nc1ccc2c(c1)OCO2` classified in this test?
// result false

// query How was COc1ccccc1CNC(=O)C1c2ccccc2C(=O)N(CC(C)C)C1c1cccs1 (stereo unspecified) classified in this test?
// result false

// query How was `O=c1oc2ccc(I)cc2c(=O)n1-c1ccc(I)cc1F` classified in this test?
// result true

// query How was `O=C(Nc1ccc(Cl)cc1F)c1cc(Br)ccc1O` classified in this test?
// result true

* * *

Tested on: OVCAR-3 ovarian
Assay: NCI-60 one-dose screen, 48 h (100 = growth as untreated, 0 = no growth, -100 = all killed)
Conditions: 10 µM unless noted
Compounds without any hit were thinned out: in the full panel of roughly 83,000, 20% have a hit.
Label scheme for growth: lower than 60% is Criterion not met, 60% and above is Criterion met.

COMPOUND	EXPERIMENTAL SYSTEM	CLASSIFICATION
O=C(c1nc2ccccc2[nH]1)C1C(c2ccc([N+](=O)[O-])cc2)C2CC3CCCCC3N2[C@@]12C(=O)Nc1cc(Cl)ccc12 (stereo not given in full)	OVCAR-3 ovarian	Criterion not met
Cc1nc(Nc2cn[nH]c2C(=O)Nc2ccc(CN3CCN(C)CC3)cc2)c2ccsc2n1	OVCAR-3 ovarian	Criterion met
O=c1c2cc(F)ccc2sc2c(Nc3ccncc3)nc3ccccc3c12	OVCAR-3 ovarian	Criterion not met
COc1c2ccoc2c(/C=C/C=O)c2oc(-c3ccccc3)cc(=O)c12	OVCAR-3 ovarian	Criterion not met

Now consider a different compound.
// query Please check the record `CN(CCc1ccccc1)C(=S)N(C(=O)c1ccc([N+](=O)[O-])cc1)c1ccc(Cl)cc1` and state if its growth is at or above 60%.
// result Criterion met

* * *

Tested on: SF-295 CNS
Test: NCI-60 one-dose screen, 48 h (100 = growth as untreated, 0 = no growth, -100 = all killed)
Conditions: 10 µM unless noted
The panel holds about 83,000 compounds, 20% with a hit somewhere; the sample as a whole holds those more often.
QUANTITY KIND: growth (%)
Kindly provide the numeric value in % only, without the unit symbol.

Example entries begin here.
MOLECULE	OBSERVED RESULT
CCN1C(=O)N(c2ccccc2)C2NN=c3s/c(=C4\C(=O)N(C(C)C)c5ccccc54)c(=O)n3C21 (configuration not stated)	17.9
CCCCNc1nc(NC(C)(C)C)nc(NC(C)(C)C)n1	-19.5
CC(C)c1ccc(S(=O)(=O)NC(=O)NC2CCCC2)cc1	97.7
O=C(Nc1nc2c(s1)CCc1c-2c(Br)n(Cc2ccccc2)c1Br)c1ccccc1	62.5

// query Given the entry `CC(=O)O[C@@H]1/C=C/C(=O)N[C@@H](C)CCC/C=C/[C@@H]2CCC[C@H]21` , report its measured growth.
// result 98.6

// query Given the entry `Cc1cc2c(c(C)c1Cl)C(=O)/C(=C/c1cccc([N+](=O)[O-])c1)O2` , report its measured growth.
// result 95.1

// query Given the entry `CCOC(=O)c1c2c(n3cccc(Cl)c13)C(=O)c1ncccc1C2=O` , report its measured growth.
// result 63.9

// query Given the entry `Cn1c(=O)n(C)c2cc(CNCCNc3ccnc4cc(Cl)ccc34)ccc21` , report its measured growth.
// result -69.4

// query Given the entry `CCCCOCc1cc(CN2CCN(C)CC2)c(O)c2ncccc12` , report its measured growth.
// result 58.5

// query Given the entry CCCCC(O)(c1ccc(Cl)cc1)C(CN1CCOCC1)c1ccc(Cl)cc1 (configuration not stated) , report its measured growth.
// result 40.9

// query Given the entry CCOc1cc(Cl)c(C(C)NC(=O)c2cccc(OC)c2)cc1OCC (configuration not stated) , report its measured growth.
// result 111

// query Given the entry CC1(O)COCCCCOc2c(CN)cccc2NC(=O)c2nc(cnc2N)-c2ccc(cc2)S(=O)(=O)C(C)(C)C1 (configuration not stated) , report its measured growth.
// result -90.3
